# GI50 listing for each entry below
system: BT-549; assay: NCI tumour cell line growth inhibition, 48 h
Calls of active or inactive are those of the source. No stated cut-off is given here; in the data, active = GI50 up to about 1.1 µM and inactive = higher. Starred links: 1 amine or outer side, 2 acyl side, 3 side chain; linkers in the order of their positions; H or OH if unused. Residues, ends and D or L forms follow the SMILES beside them. *: point of attachment. γGlu = O=C(O)[CH](CCC(=O)[*:2])N[*:1]; NHOH = ON*

{"columns": ["compound", "GI50"],
 "data": [
  ["O=C1C(O)=C(C(CCc2ccccc2)C2=C(O)C(=O)c3ccccc3C2=O)C(=O)c2ccccc21", "> 100 µM (inactive)"],
  ["CCc1n[nH]c(=O)n1/N=C/c1ccccc1O", "> 100 µM (inactive)"],
  ["CNc1nc(N(C)C)nc(N(C)C)n1", "1320 µM (inactive)"],
  ["CCOC(=O)CNC(=O)C(CCC(=O)NO)NC(=O)CCC(N)C(=O)O (stereo not given) (γGlu-Glu(NHOH)-Gly-OEt; configuration not given here)", "> 100 µM (inactive)"],
  ["Cc1ccc(C(=O)/C=C2\\Nc3ccccc3S\\C2=N\\CS(=O)(=O)c2ccc(C)cc2)cc1", "> 10 µM (inactive)"]
]}
